test_system: Staphylococcus aureus ODCase (Staphylococcus aureus, UniProt Q6GHN1)
Sequence (Q6GHN1 whole entry): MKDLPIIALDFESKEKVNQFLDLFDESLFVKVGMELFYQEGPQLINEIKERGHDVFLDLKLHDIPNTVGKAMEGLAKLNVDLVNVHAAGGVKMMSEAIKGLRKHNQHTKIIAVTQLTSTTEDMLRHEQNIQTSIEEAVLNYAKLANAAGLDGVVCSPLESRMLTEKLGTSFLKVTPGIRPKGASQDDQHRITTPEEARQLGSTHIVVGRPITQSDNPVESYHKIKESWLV
measured_parameter: Ki

Reported Ki ( O=c1cc(I)n([C@@H]2O[C@H](COP(=O)(O)O)[C@@H](O)[C@H]2O)c(=O)[nH]1 [Ib, 6-Iodo uridine-5′-O-monophosphate] ) = < 50 nM
